Source of measurements: patent US20230159610A1

- study system: the molecule itself
- assay remarks: dimer formation of the expressed construct (self-association), Western blot of transfected cells
measured quantity: binding result

>>> assay_result("FcTregV14 (other, TCP on the human IgG1 Fc-part: Treg084 in frame C, Treg134 C-terminal; also called Construct V14) DKTHTCPPCPAPELLGGPSVFLFPPKPKDTLMISRTPEVTCVVVDVSHEDPEVKFNWYVDGVEVHNAKTKPREEQYNSTYRVVSVLTVLHQDWLNGKEYKCKVSNKALPAPIEKTISKAKGTDFTLTISSLQPEDDELTKNQVSLTCLVKGFYPSDIAVEWESNGQPENNYKTTPPVLDSDGSFFLYSKLTVDKSRWQQGNVFSCSVMHEALHNHYTQKSLSLSPGKLNNFYPREAKVQWKVDNALQSGNS")
"binds"
>>> assay_result("FcTregV34 (other, TCP on the human IgG1 Fc-part: Treg289 in frame B, Treg088x C-terminal; also called Construct V34) DKTHTCPPCPAPELLGGPSVFLFPPKPKDTLMISRTPEVTCVVVDVSHEDPEVKFNWYVDGVEVHNAKTKPREEQYNSTYRVVSVLTVLHQDWLNGKEYKCKVSNKALPAPIEKTISKAKGQPREPQVYTLPPSRDELTKNQVSLTCLVKGFYPSDIAVEWESNGQPENNYKTTPPEEQYQSTYRVVSVLTVLHQDWQQGNVFSCSVMHEALHNHYTQKSLSLSPGKKTLYLQMNSLRAEDTAKH")
"binds"
